test: Cytotoxicity test (MTT, three days); assay type: cell-based; conditions: mouse, l1210 cells, final concentration 10 μM, read-out: Survival rate
Kindly state viability at 72 h, 10 µM for each of the entries shown.
The reply should be a number in %, with the unit left off.

Requested read-out: viability at 72 h, 10 µM. Entry: `CC(C)(C)C(=O)Oc1ccc(-c2nnn(CC(=O)O)n2)cc1` 109

Requested read-out: viability at 72 h, 10 µM. Entry: `CC(C)[C@H](NC(=O)c1ccc(Cn2nnc(-c3ccc(OC(=O)C(C)(C)C)cc3)n2)cc1)C(=O)O` 90.1

Requested read-out: viability at 72 h, 10 µM. Entry: `CC(C)(C)C(=O)Oc1ccc(-c2nnn(Cc3ccccc3N)n2)cc1` 93.7

Requested read-out: viability at 72 h, 10 µM. Entry: `COc1ccc(COCCCCn2nnc(-c3cccc(OC(=O)C(C)(C)C)c3)n2)cc1` 94.3

Requested read-out: viability at 72 h, 10 µM. Entry: CC(C)(C)C(=O)Oc1ccc(-c2nnn(Cc3ccccc3)n2)cc1 [Example 9, 4-(2-Benzyltetrazol-5-yl)phenyl pivalate] 98.1

Requested read-out: viability at 72 h, 10 µM. Entry: `CC(C)(C)C(=O)Oc1ccc(-c2nnn(Cc3ccc(C(=O)O)cc3)n2)cc1` 100

Requested read-out: viability at 72 h, 10 µM. Entry: `CC(C)(C)C(=O)Oc1ccc(-c2nnn(Cc3ccncc3)n2)cc1` 99.1

Requested read-out: viability at 72 h, 10 µM. Entry: CC(C)(C)C(=O)Oc1ccc(-c2nnn(C(C(=O)O)c3ccccc3)n2)cc1 (stereo not drawn) 101

Requested read-out: viability at 72 h, 10 µM. Entry: `COc1ccc(COCCCCn2nnc(-c3ccccc3OC(=O)C(C)(C)C)n2)cc1` 86.7
